Examples of compounds with documented Therapeutic ratio TR follow.
- Test system: Leukemia L1210
- EXPERIMENT SUMMARY: Activity against Leukemia L1210, intraperitoneal, increase in life span of mice
- Assay type: in vivo, female mice (BDF1 family)
- COND: ip; O.D./ILS30
Output: the number by itself.

Recorded Therapeutic ratio TR, per entry:
COMPOUND	QUANTITY MEASURED	RECORDED RESULT
CCCCN(C[C@@H]1O[C@@H](OCC2CC2)[C@@H](O)[C@H](O)[C@@H]1O)C(=O)N(CCCl)N=O [Compound 134]	Therapeutic ratio TR	40.2
CCOCCN(C[C@H]1O[C@H](OC2CCCCC2)[C@H](O)[C@@H](O)[C@H]1O)C(=O)N(CCCl)N=O [Compound 102]	Therapeutic ratio TR	52.5
COCCN(C(=O)N(CCCl)N=O)C1C(CO)OC(OCC(C)C)C(O)C1O (stereo not drawn) [Compound 93]	Therapeutic ratio TR	35.6
COCC(C)N(C[C@H]1O[C@H](OC2CCCC2)[C@H](O)[C@@H](O)[C@@H]1O)C(=O)N(CCCl)N=O (stereo partly drawn) [Compound 172]	Therapeutic ratio TR	67.3
CC(C)CO[C@H]1O[C@H](CN(CC2CCCO2)C(=O)N(CCCl)N=O)[C@@H](O)[C@@H](O)[C@@H]1O (stereo partly drawn) [Compound 140]	Therapeutic ratio TR	64.3

# input for lookup
Quick note, Therapeutic ratio TR for CC(C)CN(C[C@H]1O[C@H](OCc2ccccc2)[C@H](O)[C@@H](O)[C@@H]1O)C(=O)N(CCCl)N=O [Compound 54] landed at 38.2

###

- Tested on: Leukemia L1210
- EXPERIMENT SUMMARY: Activity against Leukemia L1210, intraperitoneal, increase in life span of mice
- Format: in vivo, female mice (BDF1 family)
- COND: Mus musculus, L1210, ip, ip once a day for 5 successive days; daily dosage giving maximum increase of life span; read-out: O.D. (optimum dosage)
QUANTITY MEASURED: ED (maximum ILS)
Value and unit, in that order.

COMPOUND	ED (maximum ILS)
CCOCCN(C(=O)N(CCCl)N=O)[C@H]1[C@@H](OCC(C)C)O[C@H](CO)[C@H](O)[C@@H]1O	200 mg/kg
CC(C)CN(C[C@H]1O[C@@H](OCC2CCCO2)[C@H](O)[C@@H]1O)C(=O)N(CCCl)N=O (stereo partly shown)	160 mg/kg
CC(C)CO[C@H]1O[C@H](CO)[C@@H](N(C(=O)N(CCCl)N=O)C2CCCCC2)[C@H](O)[C@@H]1O	170 mg/kg

Record `COCCCN(C[C@H]1O[C@H](OCC(C)C)[C@@H](O)[C@@H](O)[C@H]1O)C(=O)N(CCCl)N=O` ; system Leukemia L1210; ED (maximum ILS) = 180 mg/kg

###

- EXPERIMENT SUMMARY: Acute toxicity (LD50, Behrens-Karber method)
- Format: in vivo, ICR mice
- COND: mouse, in vivo, ip, mortality during 30 days
- Protocol: Test compounds, dissolved or suspended in 0.5% aqueous CMC, were each intraperitoneally administered to ICR mice in a dose of 0.1 ml per 10 g body weight. LD50 (mg/kg) value of each test compound was calculated from the mortality of mice during 30 days by the Behrens-Karber method.
QUANTITY MEASURED: LD50 at 720 h (mg/kg)
Please give a number only; it is taken to be in mg/kg.

These recorded examples may help you get a feel for the data.
COMPOUND	QUANTITY MEASURED	RECORDED RESULT
CCCCCCO[C@H]1O[C@H](CN(CC(C)C)C(=O)N(CCCl)N=O)[C@@H](O)[C@H](O)[C@H]1O [Compound 26]	LD50 at 720 h	415
C=C(C)CN(C(=O)N(CCCl)N=O)[C@@H]1[C@H](O)[C@@H](O)[C@@H](OCC(COC)OC)O[C@@H]1CO (stereo partly drawn) [Compound 130]	LD50 at 720 h	525
CC(C)(C)O[C@H]1O[C@H](CN(C(=O)N(CCCl)N=O)C2CCCCC2)[C@@H](O)[C@H](O)[C@H]1O [Compound 173]	LD50 at 720 h	510
COc1ccc(CN(C[C@H]2O[C@H](OCC(C)C)[C@H](O)[C@@H](O)[C@@H]2O)C(=O)N(CCCl)N=O)cc1 [Compound 21]	LD50 at 720 h	585
C=C(C)CN(C(=O)N(CCCl)N=O)C1C(CO)OC(OC(C)CC)C(O)C1O (stereo not drawn) [Compound 91]	LD50 at 720 h	450
CCCCO[C@H]1O[C@H](CO)[C@H](N(C(=O)N(CCCl)N=O)C(C)COC)[C@H](O)[C@H]1O (stereo partly drawn) [Compound 132]	LD50 at 720 h	550
CCOCCO[C@H]1O[C@H](CN(CC(C)C)C(=O)N(CCCl)N=O)[C@H](O)[C@H](O)[C@H]1O [Compound 114]	LD50 at 720 h	580
C=C(C)CO[C@H]1O[C@H](CN(C(=O)N(CCCl)N=O)C(C)(C)C)[C@@H](O)[C@H](O)[C@H]1O [Compound 177]	LD50 at 720 h	550
COC(C)CO[C@H]1O[C@H](CN(CC2CCCO2)C(=O)N(CCCl)N=O)[C@H](O)[C@H](O)[C@H]1O (stereo partly drawn) [Compound 117]	LD50 at 720 h	610
CCOCCO[C@H]1O[C@H](CN(C(=O)N(CCCl)N=O)C(C)C)[C@H](O)[C@H](O)[C@H]1O [Compound 113]	LD50 at 720 h	450

GET /value?item= COCCCN(C(=O)N(CCCl)N=O)[C@H]1CO[C@@H](OCC(C)C)[C@H](O)[C@H]1O [Compound 154] &field=LD50 at 720 h returns 500

Record COCCCO[C@@H]1O[C@H](CN(CCCOC)C(=O)N(CCCl)N=O)[C@@H](O)[C@H]1O [Compound 168] , field LD50 at 720 h: 500

For this compound ( CC(C)CN(C(=O)N(CCCl)N=O)[C@H]1[C@H](O)[C@H](OC2CCCCC2)O[C@@H]1CO [Compound 163] ), measured LD50 at 720 h is 550

LD50 at 720 h recorded for this compound, CCC(C)N(C[C@H]1O[C@H](OCCOCOC)[C@H](O)[C@@H](O)[C@H]1O)C(=O)N(CCCl)N=O (stereo partly drawn) [Compound 115] , is 600

Record summary for O=NN(CCCl)C(=O)N(Cc1ccccc1)C[C@H]1O[C@H](OC2CCCCC2)[C@H](O)[C@@H](O)[C@@H]1O [Compound 46] : reported LD50 at 720 h = 510
